Assay: ATG_NF_kB_CIS: Attagene CIS-FACTORIAL HepG2 Assay for human Nuclear Factor Kappa B (NF-kB) (AID 2282991)
Conditions: HepG2 Attagene cis-factorial NF-kB reporter mRNA; actives raise or lower the signal
The source made the active and inactive calls. Rule for the calls: active = hit-call score of the fitted dose curve at least 0.9, where 1 is the maximum; inactive = score below 0.9.
Returns: one label drawn from 1 (active), -1 (inactive)

Which outcome did this test record for the compound O=c1c(O)c(-c2ccc(O)c(O)c2)oc2cc(O)cc(O)c12 ?
-1

Which outcome did this test record for the compound C=CCOC(=O)c1ccccc1C(=O)OCC=C ?
-1

Which outcome did this test record for the compound O=C(OCCCCCOC(=O)c1ccccc1)c1ccccc1 ?
-1

Which outcome did this test record for the compound Cc1cccc([N+](=O)[O-])c1C ?
-1

Which outcome did this test record for the compound CCCCCCOCCO ?
-1

Which outcome did this test record for the compound Cc1ccc2ncccc2c1 ?
-1

Which outcome did this test record for the compound COc1cc(/C=C/C(=O)CC(=O)/C=C/c2ccc(O)c(OC)c2)ccc1O ?
1

Which outcome did this test record for the compound O=C(O)CCCCC(=O)O ?
-1

Hey, just so you know, these numbers are from PubChem BioAssay (EPA / NIEHS).
